# assaySystem: UniProt:P11712
# Sequence (P11712 whole entry): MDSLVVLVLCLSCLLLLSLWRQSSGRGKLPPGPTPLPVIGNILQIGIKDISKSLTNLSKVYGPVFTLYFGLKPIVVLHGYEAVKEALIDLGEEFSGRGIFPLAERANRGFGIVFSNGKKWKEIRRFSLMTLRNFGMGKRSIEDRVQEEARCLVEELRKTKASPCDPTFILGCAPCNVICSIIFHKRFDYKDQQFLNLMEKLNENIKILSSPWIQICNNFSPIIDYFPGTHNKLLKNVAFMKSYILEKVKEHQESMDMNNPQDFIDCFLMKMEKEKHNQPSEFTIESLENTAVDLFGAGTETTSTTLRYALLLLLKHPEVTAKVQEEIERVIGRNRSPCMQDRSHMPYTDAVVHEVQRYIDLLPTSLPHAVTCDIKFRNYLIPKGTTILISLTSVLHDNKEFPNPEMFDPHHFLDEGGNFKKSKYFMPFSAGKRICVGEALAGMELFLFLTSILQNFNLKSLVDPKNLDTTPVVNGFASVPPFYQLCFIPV
# assayExplanation: CYP2C9 inhibition in upcyte hepatocytes over 24 h
# Format: in vitro ADME
# measurementSetup: probe tolbutamide (5 μmol/L), percentage inhibition, CYP2C9, OH-Tolb, 1 mmol/L ABT, Donor 151-03, 24 h, Lab 2
metricName: inhibition at 24 h, 1 mmol/L
The reply should consist of the numeric value with the unit placed after it.

The reported inhibition at 24 h, 1 mmol/L of the compound `Nn1nnc2ccccc21` was 98%

###

# System: CYP2B6
# measurementSetup: upcyte Donor 151-03; mean from two experiments
Some compounds, each annotated with its measured CYP2B6 Indmax.
Response body: numeric value in fold, unit text excluded.

So for O=C1NC(=O)C(c2ccccc2)(c2ccccc2)N1 [Phenytoin, phenytoin] , the logged CYP2B6 Indmax turned out to be 2.7

// switching to the query compound
Summary for this compound, CCc1ccc(CCOc2ccc(CC3SC(=O)NC3=O)cc2)nc1 (stereo not shown) [Pioglitazone, pioglitazone] : CYP2B6 Indmax is 1.9

All figures here come from paper PMC4618636.
